Reported IC50 values follow for various compounds
biological target: HPK1 (Homo sapiens)
Sequence (Q92918 whole entry): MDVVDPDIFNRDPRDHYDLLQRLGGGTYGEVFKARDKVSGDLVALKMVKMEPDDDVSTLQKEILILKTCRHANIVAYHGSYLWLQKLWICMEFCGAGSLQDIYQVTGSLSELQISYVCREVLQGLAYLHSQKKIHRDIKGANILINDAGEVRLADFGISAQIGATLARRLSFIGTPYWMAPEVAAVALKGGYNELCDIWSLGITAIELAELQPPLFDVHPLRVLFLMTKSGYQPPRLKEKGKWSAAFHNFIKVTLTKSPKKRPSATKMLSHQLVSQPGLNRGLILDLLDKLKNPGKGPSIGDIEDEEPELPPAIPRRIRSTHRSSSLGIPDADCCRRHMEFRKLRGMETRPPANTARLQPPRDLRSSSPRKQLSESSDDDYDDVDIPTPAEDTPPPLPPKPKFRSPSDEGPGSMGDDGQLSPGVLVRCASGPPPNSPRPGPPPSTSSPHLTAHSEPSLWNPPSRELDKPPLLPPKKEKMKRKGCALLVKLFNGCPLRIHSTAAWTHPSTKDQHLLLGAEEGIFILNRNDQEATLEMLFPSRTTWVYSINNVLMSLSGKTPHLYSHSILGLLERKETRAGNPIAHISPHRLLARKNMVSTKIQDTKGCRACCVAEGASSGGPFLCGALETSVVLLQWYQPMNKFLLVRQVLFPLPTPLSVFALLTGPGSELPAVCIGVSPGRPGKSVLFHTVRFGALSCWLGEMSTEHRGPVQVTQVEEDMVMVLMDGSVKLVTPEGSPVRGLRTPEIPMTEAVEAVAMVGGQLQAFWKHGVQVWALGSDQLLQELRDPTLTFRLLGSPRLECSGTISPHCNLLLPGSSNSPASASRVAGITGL

| compound | IC50 |
| --- | --- |
| CO[C@H]1CCN(Cc2nc(Nc3ccc(-c4cnc5cc(F)ccn45)c4c3C(=O)NC4)ccc2C2CCN(C)C(=O)C2)C1 (stereo partly drawn) [Compound I-44] | ≤ 100 nM |
| CN(C)Cc1nc(Nc2ccc(-c3cnc4cnccn34)c3c2C(=O)NC3)ccc1OCC1CCC(F)(F)CC1 | ≤ 100 nM |
| CO[C@H]1CCN(Cc2nc(Nc3ccc(-c4cnc5cc(F)ccn45)c4c3C(=O)NC4)ccc2C2CCN(C)C(=O)C2)C1 (stereo partly drawn) [Compound I-43] | ≤ 100 nM |
| Cc1cncc2ncc(-c3ccc(Nc4ccc([C@@H]5CCOC5)c(CN(C)C)n4)c4c3CNC4=O)n12 (single isomer, unassigned) | ≤ 100 nM |
| CN1CCN(C(=O)[C@@H]2CCOC2)c2ccc(Nc3ccc(-c4cnc5cc(F)ccn45)c4c3C(=O)NC4)nc2C1 (single isomer, unassigned) | 100 to 1000 nM |

Prompt line: Query IC50 for C[C@H](OC[C@H]1COCCO1)c1ccc(Nc2ccc(-c3cnc4cc(F)ccn34)c3c2C(=O)NC3)nc1CN(C)C (single isomer, unassigned)
Response line: ≤ 100 nM

Prompt line: Note IC50 for the compound shown: CN(C)Cc1nc(Nc2ccc(-c3cnc4cc(F)ccn34)c3c2C(=O)NC3)ccc1[C@@H]1CC[C@H](O)C1
Response line: ≤ 100 nM

Prompt line: Give the reported value of IC50 for this record: C[C@@H](O)c1ccc(Nc2ccc(-c3cnc4cc(F)ccn34)c3c2C(=O)NC3)nc1CN(C)C
Response line: ≤ 100 nM

Prompt line: Input CN1CC[C@H](c2ccc(Nc3ccc(-c4cnc5cc(F)ccn45)c4c3C(=O)NC4)nc2)C1=O , output reported IC50.
Response line: ≤ 100 nM

Prompt line: Using the record for C[C@H](c1nc(Nc2ccc(-c3cnc4cc(F)ccn34)c3c2C(=O)NC3)ccc1C1CCOCC1)N(C)C , state its measured IC50.
Response line: 100 to 1000 nM

Prompt line: Read the entry CO[C@@]1(c2ccc(Nc3ccc(-c4cnc5cc(F)ccn45)c4c3C(=O)NC4)nc2CN(C)C)CCOC1 (single isomer, unassigned) and write its reported IC50.
Response line: ≤ 100 nM

Prompt line: Find the measured IC50 of Cc1cncc2ncc(-c3ccc(Nc4ccc([C@H]5CCOC5)c(CN(C)C)n4)c4c3CNC4=O)n12 (single isomer, unassigned) and report it.
Response line: ≤ 100 nM

Prompt line: Return reported IC50. Input compound: CO[C@]1(c2ccc(Nc3ccc(-c4cnc5cc(F)ccn45)c4c3C(=O)NC4)nc2CN(C)C)CCOC1 (single isomer, unassigned)
Response line: ≤ 100 nM

Prompt line: Provide one value: measured IC50 of CN(C)Cc1cc(C2CCOC2)cc(Nc2ccc(-c3cnc4cc(F)ccn34)c3c2C(=O)NC3)n1 (stereo not drawn) [Compound I-46]
Response line: > 1000 nM

Prompt line: State its IC50: CN(C)Cc1nc(Nc2ccc(-c3cnc4cc(F)ccn34)c3c2C(=O)NC3)ccc1[C@H]1CC[C@H](O)C1
Response line: ≤ 100 nM

Prompt line: Give reported IC50 value for CN(C)Cc1cc(C2CCOC2)cc(Nc2ccc(-c3cnc4cc(F)ccn34)c3c2C(=O)NC3)n1 (single isomer, unassigned) [Compound I-45]
Response line: ≤ 100 nM
